All figures here come from patent US20260151494A1.

molecular target: T1, cynomolgus monkey CD71 extracellular domain (CD71-ECD) (cynomolgus monkey, UniProt H9EXL1 89-760 (rhesus entry)); experiment: capture ELISA, 20 nM antigen on Neutravidin plate, FN3 titrated 250 to 0.3 nM
T1 construct: extracellular domain; It was captured on a Neutravidin plate; also called cynomolgus CD71-ECD
T1 sequence (chain, as listed by the source): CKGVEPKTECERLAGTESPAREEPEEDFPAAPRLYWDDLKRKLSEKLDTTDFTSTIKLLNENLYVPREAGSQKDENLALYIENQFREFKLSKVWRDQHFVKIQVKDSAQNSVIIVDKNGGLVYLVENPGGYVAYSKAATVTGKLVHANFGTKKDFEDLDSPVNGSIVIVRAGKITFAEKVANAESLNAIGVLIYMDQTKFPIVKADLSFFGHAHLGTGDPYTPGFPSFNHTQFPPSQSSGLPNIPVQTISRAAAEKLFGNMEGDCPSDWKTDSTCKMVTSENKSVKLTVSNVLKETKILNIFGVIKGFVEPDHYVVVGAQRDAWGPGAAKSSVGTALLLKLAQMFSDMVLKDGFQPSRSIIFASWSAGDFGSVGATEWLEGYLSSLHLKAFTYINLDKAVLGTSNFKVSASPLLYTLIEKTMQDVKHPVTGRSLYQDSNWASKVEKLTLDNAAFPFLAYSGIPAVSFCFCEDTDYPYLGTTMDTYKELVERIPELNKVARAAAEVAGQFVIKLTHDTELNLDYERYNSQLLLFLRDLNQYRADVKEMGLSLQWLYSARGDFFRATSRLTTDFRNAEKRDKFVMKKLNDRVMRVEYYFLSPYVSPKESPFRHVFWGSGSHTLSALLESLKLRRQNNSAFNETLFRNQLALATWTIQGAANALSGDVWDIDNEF
result_type: EC50 (nM)
Reply numerically in nM, unit not repeated.

Some binders with recorded EC50:
{"binder": "CD71-binding FN3 domain of SEQ ID NO: 529 (designed binder, Tencon-based FN3 domain) MLPAPKNLVVSRVTEDSARLSWTAPDAAFDSFFIGYLEPQPPGEAIDLYVPGSERSYDLTGLKPGTEYNVTIQGVKGGFPSLPLQAHFTT", "EC50 (nM)": 2.7}
{"binder": "CD71-binding FN3 domain of SEQ ID NO: 473 (designed binder, Tencon-based FN3 domain) MLPAPKNLVVSRVTEDSARLSWTAPDAAFDSFFIGYLEPQPPGEAIDLWVPGSERSYDLTGLKPGTEYNVTIQGVKGGFPSLPLSASFTT", "EC50 (nM)": 34.9}
{"binder": "CD71-binding FN3 domain of SEQ ID NO: 483 (designed binder, Tencon-based FN3 domain) MLPAPKNLVVSRVTEDSARLSWTAPDAAFDSFFIGYLEPQPPGEAITLVVPGSERSYDLTGLKPGTEYNVTIQGVKGGFPSDPLVASFTT", "EC50 (nM)": 23}

Could you now look at the following binder, please?
### Prompt Given the entry CD71-binding FN3 domain of SEQ ID NO: 465 (designed binder, Tencon-based FN3 domain) MLPAPKNLVVSRVTEDSARLSWTAPDAAFDSFFIGYLEPQPPGEAIDLYVPGSERSYDLTGLKPGTEYNVTIQGVKGGFPSEPLWADFTT , report its measured EC50.
### Response 24.9
